# System: CD34^+CD38^− cells
# PROTOCOL DETAILS: Expansion of CD34+CD38− cells from human cord blood-derived CD34+ cells (Example 2)
# Assay type: cell-based
# EXPERIMENTAL SETUP: Homo sapiens, 168 h, 1 μg/mL compound, 50 ng/mL SCF, StemSpan SFEM, 7 days; based on number of CD34+CD38− cells in the absence of compound; read-out: Expansion efficiency
fold induction at 1 µg/mL for assorted compounds

Measured fold induction at 1 µg/mL, `COc1ccc(-c2scc(/C(C)=N/NC(=O)c3ccc(C(=O)NCc4cc(C)n(C)n4)s3)c2O)cc1` : ≥ 10

The measured fold induction at 1 µg/mL associated with `C/C(=N\NC(=O)c1ccc(C(=O)NCc2cn(C)cn2)s1)c1csc(-c2ccc(OC(F)(F)F)cc2)c1O` reads 3 to 5

Query `C/C(=N\NC(=O)c1ccc(C(=O)NCc2ccc(C(=O)O)cc2)s1)c1csc(-c2ccc(Cl)c(Cl)c2)c1O` yields fold induction at 1 µg/mL of 3 to 5

Record `C/C(=N\NC(=O)c1ccc(C(=O)NCc2ccc(C(N)=O)cc2)s1)c1csc(-c2ccc(C(F)(F)F)cc2)c1O` , field fold induction at 1 µg/mL: ≥ 10

Per the record, `C/C(=N\NC(=O)c1ccc(C(=O)NCc2ccccc2C(N)=O)s1)c1csc(-c2ccc(C(C)(C)C)cc2)c1O` has fold induction at 1 µg/mL of 3 to 5

The value of fold induction at 1 µg/mL measured for the compound C/C(=N\NC(=O)c1ccc(C(=O)NC(C)c2ccc(C(N)=O)cc2)s1)c1csc(-c2ccc(C(F)(F)F)cc2)c1O (centres unmarked) turned out to be ≥ 10

The compound listed as C/C(=N\NC(=O)c1ccc(C(=O)NC(C)c2ccc(C(N)=O)cc2)s1)c1csc(-c2ccc(Cl)cc2)c1O (centres unmarked) shows fold induction at 1 µg/mL equal to ≥ 10

Query `C/C(=N\NC(=O)c1ccc(C(=O)N(C)Cc2ccccc2)s1)c1csc(-c2ccc(Cl)c(Cl)c2)c1O` yields fold induction at 1 µg/mL of ≥ 10

`COc1c(/C(C)=N/NC(=O)c2ccc(C(=O)NCc3ccncc3)s2)csc1-c1ccc(Cl)c(Cl)c1` has a reported fold induction at 1 µg/mL of 5 to 10

The recorded fold induction at 1 µg/mL for `CNC(=O)c1ccc(CNC(=O)c2ccc(C(=O)N/N=C(\C)c3csc(-c4ccc(C(F)(F)F)cc4)c3O)s2)cc1` is ≥ 10

Just so you know, measured fold induction at 1 µg/mL for `C/C(=N\NC(=O)c1ccc(C(=O)NCc2ccccn2)s1)c1csc(-c2cccc(Cl)c2)c1O` came out at 3 to 5

fold induction at 1 µg/mL reading for `C/C(=N\NC(=O)c1ccc(C(=O)NCc2ccccn2)s1)c1csc(-c2ccc(Cl)cc2)c1O` : 5 to 10

Measured fold induction at 1 µg/mL of `C/C(=N\NC(=O)c1ccc(C(=O)NCc2ccnn2C)s1)c1csc(-c2ccc(Cl)cc2)c1O` : 5 to 10

Looking up `C/C(=N\NC(=O)c1ccc(C(=O)NCCO)s1)c1csc(-c2ccc(Cl)c(Cl)c2)c1O` , I found its fold induction at 1 µg/mL recorded as 5 to 10
